molecular target: Recombinant human renin (Homo sapiens); construct: isolate the active form (residues 67-406); made in house; host or cells: FreeStyle 293-F cells, transient expression of pcDNA3.1(+)/hREN; assay: In vitro enzymatic activity assay of renin inhibitors (fluorescence, QXL520/HiLyteFluo488 peptide substrate); format: biochemical; conditions: recombinant human renin 3 nM, 1 μM substrate, pre-incubated 10 minutes at 37° C., incubation one hour, pH 7.4, 5% DMSO; read-out: IC50 of Exemplified Compounds Against Renin
Sequence (P00797 67-406): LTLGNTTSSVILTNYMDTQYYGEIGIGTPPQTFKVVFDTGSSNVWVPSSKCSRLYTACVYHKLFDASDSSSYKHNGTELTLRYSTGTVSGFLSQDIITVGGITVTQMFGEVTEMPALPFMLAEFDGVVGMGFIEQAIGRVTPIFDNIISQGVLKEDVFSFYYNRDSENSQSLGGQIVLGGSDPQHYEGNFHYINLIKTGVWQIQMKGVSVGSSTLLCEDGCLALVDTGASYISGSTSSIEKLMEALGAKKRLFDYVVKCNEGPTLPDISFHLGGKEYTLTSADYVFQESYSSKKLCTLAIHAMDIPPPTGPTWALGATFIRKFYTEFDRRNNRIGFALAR
pIC50: −log10 of the molar value.
measurementType: pIC50

Cc1ccccc1-n1c(-c2ccccc2)c(C(=O)N2CCNCC2)n(CCCNS(=O)(=O)c2ccc(Cl)cc2)c1=O [Example 219] : 6.30 to 7.00
O=C(c1[nH]c(=O)n(-c2ccccc2)c1C1CC1)N1CCNCC1 [Example 24] : < 6.00
COCCOc1cccc(Cn2c(C(=O)N3CCNCC3)c(-c3ccccc3)n(-c3ccccc3OC)c2=O)c1 [Example 187] : < 6.00

[ask] Sample COCCOc1ccccc1-n1c(-c2ccccc2)c(C(=O)N2CCNCC2)[nH]c1=O [Example 32] — what was its pIC50?
[reply] < 6.00

[ask] Record: COC(=O)NCCCn1c(C(=O)N2CCNCC2)c(-c2ccccc2)n(-c2ccccc2C)c1=O [Example 253]
[reply] < 6.00
